System: nNOS PDZ domain
Assay: Binding of mutagenized His6-CAPON fusion proteins to immobilized GST-NOS (1-100)
Details: His6-fusion of last 100 amino acids of CAPON, last four amino acids given
metric: binding to GST-NOS (1-100)

molecule: His6 -CAPON: His6-tagged fusion protein of the C-terminal 100 or 125 amino acids of CAPON (protein) SGALPVLCESTTPKPEDLHSPLLGAGLADFAHPVGSPLGRRDCLVKLECFRFLPAEDNQPMAQGEPLLGGLELIKFRESGIASEYESNTDESEERDSWSQEELPRLLNVLQRQELGDSLDDEIAV
metric: binding to GST-NOS (1-100)
recorded-measurement: binds

molecule: EAAV: His6-CAPON (last 100 amino acids), n-2 isoleucine mutated to alanine (protein) GLADFAHPVGSPLGRRDCLVKLECFRFLPAEDNQPMAQGEPLLGGLELIKFRESGIASEYESNTDESEERDSWSQEELPRLLNVLQRQELGDSLDDEAAV
metric: binding to GST-NOS (1-100)
recorded-measurement: tolerated

molecule: ESAV: His6-CAPON (last 100 amino acids), n-2 isoleucine mutated to serine (protein) GLADFAHPVGSPLGRRDCLVKLECFRFLPAEDNQPMAQGEPLLGGLELIKFRESGIASEYESNTDESEERDSWSQEELPRLLNVLQRQELGDSLDDESAV
metric: binding to GST-NOS (1-100)
recorded-measurement: tolerated
